Test: in vitro
Details: human, hek293t cells
recorded_endpoint: viability at 48 h, 25 µM (%)

molecule: Cc1ccc(C=C(C#N)C(=O)Nc2ccccc2C(=O)O)s1 [9-K08]
recorded_endpoint: viability at 48 h, 25 µM
readout_value: 104
--
molecule: C=CC(=O)NC1CCN(c2ccccc2S(=O)(=O)CC)CC1 [2-M03]
recorded_endpoint: viability at 48 h, 25 µM
readout_value: 82.2
--
molecule: C=CS(=O)(=O)Nc1ccccc1 [10-C07, N-phenylethene-1-sulfonamide]
recorded_endpoint: viability at 48 h, 25 µM
readout_value: 30.8
--
molecule: C=CC(=O)NC1CC2(CCC(C(=O)O)CC2)C1 (stereo not shown) [2-I16]
recorded_endpoint: viability at 48 h, 25 µM
readout_value: 92.8
--
molecule: C=CC(=O)N1CCC(C(=O)NC2CCCc3cc(F)ccc32)CC1 (stereo not shown) [2-K18]
recorded_endpoint: viability at 48 h, 25 µM
readout_value: 94.2
--
molecule: Cn1ccnc1C(NC(=O)CCl)c1ccccc1 (stereo not shown) [4-H20]
recorded_endpoint: viability at 48 h, 25 µM
readout_value: 44.4
--
molecule: C=CC(=O)N1CCC(CCO)c2ccccc21 (stereo not shown) [3-O03]
recorded_endpoint: viability at 48 h, 25 µM
readout_value: 58.4
--
molecule: N#CC(=Cc1c2ccccc2cc2ccccc12)C(=O)NC1CCCCC1 [8-D14]
recorded_endpoint: viability at 48 h, 25 µM
readout_value: 94.6
--
molecule: C=CC(=O)N1CCC(C(=O)Nc2c[nH]c(=O)c(C)c2)CC1 [3-J05]
recorded_endpoint: viability at 48 h, 25 µM
readout_value: 51.5
--
molecule: C=CC(=O)Nc1cccc(-c2cn(C)nn2)c1 [1-K14]
recorded_endpoint: viability at 48 h, 25 µM
readout_value: 82.8

###

Assay: in vitro
Settings: human, hek293t cells

record_smiles: Cc1ccc(-n2c(C)cc(C=C(C#N)C(=O)N3CCCCC3)c2C)cc1
viability at 48 h, 25 µM, %: 87.8

record_smiles: C=CC(=O)N1CCC(Cc2noc(C)n2)CC1
viability at 48 h, 25 µM, %: 103

record_smiles: Cc1ccc(NC(=O)C(C#N)=Cc2ccccc2OC(F)F)cc1
viability at 48 h, 25 µM, %: 96.9

record_smiles: C=CC(=O)N1CCC(C(=O)NC2CCN(C(=O)C(C)(C)C)CC2)CC1
viability at 48 h, 25 µM, %: 52.8

record_smiles: C=CC(=O)N1CCC(C(=O)NC2(CO)CCSCC2)CC1
viability at 48 h, 25 µM, %: 67.5

###

Experiment: in vitro
Conditions: human, hek293t cells
Recorded viability at 48 h, 25 µM for the following compounds

compound: N#CC(=Cc1ccc(-c2cccc([N+](=O)[O-])c2)o1)C(=O)N1CCOCC1 [8-C07]
value_unit: %
viability at 48 h, 25 µM: 79.1

compound: CC(Cl)C(=O)N(C)C1CS(=O)(=O)c2ccc(Cl)cc21 (stereo not shown) [7-M14]
value_unit: %
viability at 48 h, 25 µM: 73

compound: CC(Cl)C(=O)Nc1ccc(N(C)C)cc1 (stereo not shown) [5-N04]
value_unit: %
viability at 48 h, 25 µM: 99.3

compound: CC(NC(=O)CCl)C(=O)N1CCS(=O)(=O)CC1 (stereo not shown) [5-K14]
value_unit: %
viability at 48 h, 25 µM: 86.7

compound: CC(Cl)C(=O)N1CCN(Cc2ccc3ccccc3n2)CC1 (stereo not shown) [7-A15]
value_unit: %
viability at 48 h, 25 µM: 83.2

compound: CC(C)c1ccc(C(NC(=O)CCl)C(C)C)cc1 (stereo not shown) [4-O14]
value_unit: %
viability at 48 h, 25 µM: 0.576

compound: CSc1ccc(C(=O)CCl)cc1 [10-E07]
value_unit: %
viability at 48 h, 25 µM: 1.88

compound: CC(=O)c1ccccc1NC(=O)C(C)Cl (stereo not shown) [5-O19, N-(2-acetylphenyl)-2-chloropropanamide]
value_unit: %
viability at 48 h, 25 µM: 90.1

compound: N#CC(=Cc1ccc(C#N)cc1)C(=O)Nc1cccc(Cl)c1Cl [8-J05]
value_unit: %
viability at 48 h, 25 µM: 112

compound: CC(Cl)C(=O)c1ccc(NC(=O)C(C)(C)C)cc1 (stereo not shown) [10-M06]
value_unit: %
viability at 48 h, 25 µM: 97.9

compound: CNc1ccc(C=C(C#N)C(=O)Nc2ccccc2F)cc1[N+](=O)[O-] [8-N09]
value_unit: %
viability at 48 h, 25 µM: 110

compound: COC(=O)c1c(-c2ccccc2Cl)csc1NC(=O)CCl [4-F07]
value_unit: %
viability at 48 h, 25 µM: 5.7

compound: Cc1cccc(Cc2cnc(NC(=O)C(C)Cl)s2)c1 (stereo not shown) [4-D19]
value_unit: %
viability at 48 h, 25 µM: 74.1

compound: CC(Cl)C(=O)N1CCC(n2ncc3ccccc32)C1 (stereo not shown) [7-K04]
value_unit: %
viability at 48 h, 25 µM: 92.4

compound: CS(=O)(=O)N1CCC(N(CC(F)F)C(=O)CCl)CC1 [5-O12]
value_unit: %
viability at 48 h, 25 µM: 1.77

compound: CCOC(=O)C1=C(C)NC(=O)N(C(=O)CCl)C1c1ccccc1 (stereo not shown) [5-I05]
value_unit: %
viability at 48 h, 25 µM: 44.7

compound: C=CC(=O)N(Cc1cn(CC)nc1C)C1CC1 [2-D13]
value_unit: %
viability at 48 h, 25 µM: 76.3

compound: CC1CCCCC1NC(=O)C(C#N)=Cc1cccc(O)c1 (stereo not shown) [8-E07]
value_unit: %
viability at 48 h, 25 µM: 45.1

compound: Cc1ccc(NC(=O)C(C#N)=Cc2ccsc2)c(C)c1 [9-M19]
value_unit: %
viability at 48 h, 25 µM: 102

compound: C=CC(=O)NCc1ccnc(N2CCN(c3ccc(F)cc3)CC2)c1 [1-M11]
value_unit: %
viability at 48 h, 25 µM: 71.6

compound: Cn1nc(C(F)(F)F)cc1CN(C(=O)CCl)C1CCCC1 [5-C16]
value_unit: %
viability at 48 h, 25 µM: 0.815

compound: O=C(CCl)C1(F)CCCCC1 [10-K19]
value_unit: %
viability at 48 h, 25 µM: 97.5
